Each record here notes measured self-splicing fitness (ln).
Assay: self-splicing fitness, log relative to wild type (ln ratio); higher = more splicing; Tetrahymena group I intron in knt gene, E. coli kanamycin selection, DiMSum; sequences stand for … in CUCUCU…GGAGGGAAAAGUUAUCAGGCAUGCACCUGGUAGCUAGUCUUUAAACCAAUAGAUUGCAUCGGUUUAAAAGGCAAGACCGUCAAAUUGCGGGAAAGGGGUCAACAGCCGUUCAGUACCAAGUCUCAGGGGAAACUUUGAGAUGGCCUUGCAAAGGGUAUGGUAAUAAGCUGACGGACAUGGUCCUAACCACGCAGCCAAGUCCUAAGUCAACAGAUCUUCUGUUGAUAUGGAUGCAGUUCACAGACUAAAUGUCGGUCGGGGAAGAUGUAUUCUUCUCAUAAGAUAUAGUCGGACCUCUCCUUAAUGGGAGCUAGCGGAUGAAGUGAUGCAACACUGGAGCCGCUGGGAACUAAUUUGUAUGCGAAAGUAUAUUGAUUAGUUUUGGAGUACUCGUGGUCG;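 further: selection with 25 µg/mL kanamycin versus none on LB agar overnight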
Details: 30 °C
quantityKind: self-splicing fitness (ln)

           itemsequence  number
0  AGACAGCAAUAUUACGGGAA   -2.68
1  UUGCAGCAAUAUUACGUAAA   -1.25
2  UAAUAGCAAUAUUACGGGGC   -3.12
